study_system: T1, UNK ZnF1-3 (human, UniProt Q9C0B0 31-174)
T1 sequence: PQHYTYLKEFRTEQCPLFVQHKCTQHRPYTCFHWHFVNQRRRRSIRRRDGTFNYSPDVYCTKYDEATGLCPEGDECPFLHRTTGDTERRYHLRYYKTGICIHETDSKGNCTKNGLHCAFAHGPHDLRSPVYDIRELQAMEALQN
assay_protocol: nsRBNS (natural sequence RNA bind-n-seq); RBNS binding buffer (assumed for nsRBNS): 25 mM Tris pH 7.5, 150 mM KCl, 3 mM MgCl2, 0.01% Triton X-100, 500 ug/ml BSA, 20 U/ml SUPERase-In, 4 C; UNK is unkempt and MSI1 is Musashi-1; names of the RNAs are library labels; protein concentration not given here; high values mean tight binding
In all, about 24,000 sequences were measured (“enrichment r”: median about 0.99, highest 2% from about 3.7 on). The entries come from a sample that favours the highest values as a whole.
quantity: binding signal (enrichment R)
I only need the number, in enrichment R, no unit after it.

Specify binding signal for 19737984_19738104_982_3pUTR_ENSG00000105849_ENST00000222567|human|control|control (ssRNA) RNA: GGGAGUUCUACAGUCCGACGAUCGGUGGGGUAAAUUCGGCCUCUUCACUGUGUUUUCUUUUCUUUUUUUUCUUUUUAUGGUCACUUUGGUAACCACUGGAGUCACUGCCUUGGAAAACAGGGUCCUGGUCCUGAACUUCCUGGCAACAGAGGAUUGAGCAUCA and stop.
0.463

Specify binding signal for chr1:39494447:39494448:+_ENSG00000168653_ENST00000372967|hu_mus|hu_hu_hu_mus_False|58_68 (ssRNA) RNA: GGGAGUUCUACAGUCCGACGAUCGCACCGAGCGGCGUUCUUAUAGGGCUGUUCUGCGCUUAGGAACGUCAACCAUCGAUCUAUGUUGAUGCCCAGCUUUUUCUGUAUGUCAAGGAAAGGCAUGGCUCUGCAGUGCCCUUGUCACAACAGAGGAUUGAGCAUCA and stop.
0.515

Specify binding signal for chr2:202488911:202488912:-_ENSG00000155755_ENST00000286196|hu_mus|hu_hu_hu_mus_False|18_78 (ssRNA) RNA: GGGAGUUCUACAGUCCGACGAUCAUUGAAACAUUUUUCAUAAUCUCCAGUAGCAUUCAGUAUUAUAGUAACAAAAGCUCAAUUGUAAAUACAUGUAUCUUAUAAAAAUACACUUAAAUUUAAAAACGGGGAGCGCAGGCGCCACAACAGAGGAUUGAGCAUCA and stop.
5.43

Specify binding signal for chr2:202488911:202488912:-_ENSG00000155755_ENST00000286196|hu_mus|hu_hu_hu_mus_False|18_68 (ssRNA) RNA: GGGAGUUCUACAGUCCGACGAUCAUUGAAACAUUUUUCAUAAUCUCCAGUAGCAUUUCAGCAUUAUUAAUCAAAAACUCAAUUGUAAAUACAUGUAUCUUAUAAAAAUACACUUAAAUUUAAAAACGGGGAGCGCAGGCGCCACAACAGAGGAUUGAGCAUCA and stop.
7.64

Specify binding signal for chr2:202488911:202488912:-_ENSG00000155755_ENST00000286196|hu_mus|hu_hu_hu_mus_False|58_68 (ssRNA) RNA: GGGAGUUCUACAGUCCGACGAUCAUUGAAACAUUUUUCAUAAUCUCCAGUAGCAUUUCAGCAUUAUUAAUCAAAAAAUCUAUUACAAAUACAUGUAUCUUAUAAAAAUACACUUAAAAACACGAGUGGGGAGCGCAGGCGCCACAACAGAGGAUUGAGCAUCA and stop.
14

Specify binding signal for chr4:24541891:24541892:-_ENSG00000109606_ENST00000336812|perfect_dup|FALSE|FALSE (ssRNA) RNA: GGGAGUUCUACAGUCCGACGAUCGGAUCCCAAUUCAGUCAGAUCUCCAUCAUCAUUUAAAGCAGCCAAAUAAUUCAAAAGUUCUAGGGCUCUCAUCAGAGUUUCAGGAGCUGGUGGGUCCAUAAAAUCAAAGUGUACCAAGUCCAACAGAGGAUUGAGCAUCA and stop.
1.58

Specify binding signal for chr15:96529919:96529920:-_ENSMUSG00000022462_ENSMUST00000023099|mus_hu|FALSE|FALSE (ssRNA) RNA: GGGAGUUCUACAGUCCGACGAUCUCUCUAUUCUCACGCAGACGUCUUCAGUGGGUUUCUCUCAGUCAAAUACAAAUCAUAAAAAACAAACAAAAAAUUUCCCCAAAUCCAACAACAGGCAGGAAAAAUAAUUUUAAUAAAAAACAACAGAGGAUUGAGCAUCA and stop.
3.81
